Target: human CYP11B1 (Homo sapiens (Human), UniProt P15538)
Sequence (P15538 25-503): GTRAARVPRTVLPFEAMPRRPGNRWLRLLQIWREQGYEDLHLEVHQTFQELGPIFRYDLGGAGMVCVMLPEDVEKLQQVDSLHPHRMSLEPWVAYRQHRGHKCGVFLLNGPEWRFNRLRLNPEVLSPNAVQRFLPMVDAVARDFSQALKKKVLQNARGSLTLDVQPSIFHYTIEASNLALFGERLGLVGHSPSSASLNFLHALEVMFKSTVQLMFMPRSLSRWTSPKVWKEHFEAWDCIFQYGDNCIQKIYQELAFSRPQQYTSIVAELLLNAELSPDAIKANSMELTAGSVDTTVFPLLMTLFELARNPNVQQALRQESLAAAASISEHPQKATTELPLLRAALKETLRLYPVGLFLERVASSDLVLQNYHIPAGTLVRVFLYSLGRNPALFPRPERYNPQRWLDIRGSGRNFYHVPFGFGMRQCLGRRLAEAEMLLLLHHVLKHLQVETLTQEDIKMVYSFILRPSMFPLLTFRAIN
Assay: G-402 cellular enzyme assay, human CYP11B1 (cortisol release)
Conditions: G-402 cells, 1 μM Deoxycortisol
PROPERTY_NAME: EC50 (nM)

// known answers, use as guide
* COC1CN(C(=O)CC2CCc3c(-c4ccc(C(F)(F)F)cc4F)cncc32)C1 (racemic) | 1490
* O=C(CC1CCCc2c(-c3ccc(C(F)(F)F)cc3F)cncc21)NCC1CC1 (racemic) | 1780
* CCN(C)C(=O)CC1CCc2c(-c3ccc(C(F)(F)F)cc3F)cncc21 (racemic) | 2120
* CN(C)C(=O)CC1CCCc2c(-c3ccc(C(F)(F)F)cc3F)cncc21 (single isomer, unassigned; (+)) [Example 27] | 1490
* O=C(CC1CCCc2c(-c3ccc(C(F)(F)F)cc3F)cncc21)NC1CC1 (racemic) | 448

(1) CCN(C(=O)CC1CCc2c(-c3ccc(C(F)(F)F)cc3F)cncc21)C1CC1 (racemic)
(2) CN(C)C(=O)CC1CCCc2c(-c3ccc(C(F)(F)F)cc3F)cncc21 (racemic) [Example 26]
Prompt line: I'm curious, which of these has a smaller EC50 number: 1 or 2 ? Which one? Tell me its label.
Response line: 1

(a) CCOC(=O)CC1CCc2c(-c3ccc(C(F)(F)F)c(F)c3)cncc21 (racemic)
(b) O=C(CC1CCc2c(-c3ccc(C(F)(F)F)c(F)c3)cncc21)Nc1cc[nH]n1 (racemic)
Prompt line: Sorting by EC50 in descending order, would a or b appear first? Which one? Tell me its label.
Response line: a

(A) COCCNC(=O)CC1CCc2c(-c3ccc(C(F)(F)F)c(F)c3)cncc21 (racemic)
(B) O=C(CC1CCc2c(-c3ccc(C(F)(F)F)cc3F)cncc21)N1CC(CO)C1 (racemic)
Prompt line: I'm curious, which of these has a smaller EC50 number: A or B ? Which one? Tell me its label.
Response line: A
(A: 582 nM, B: 1160 nM)

(P) CNC(=O)CC1CCCc2c(-c3ccc(C(F)(F)F)cc3F)cncc21 (racemic)
(Q) COCCNC(=O)CC1CCCc2c(-c3ccc(C(F)(F)F)cc3F)cncc21 (racemic)
(R) CN(C)C(=O)CC1CCCc2c(-c3ccc(C(F)(F)F)cc3F)cncc21 (single isomer, unassigned; (-)) [Example 28]
Prompt line: Sort by EC50, descending. Use the labels to give the requested order.
Response line: R, Q, P
(R: 9110 nM, Q: 5060 nM, P: 1040 nM)

(I) O=C(CC1CCc2c(-c3ccc(C(F)(F)F)cc3F)cncc21)N1CCC1 (racemic)
(II) O=C(CC1CCc2c(-c3ccc(C(F)(F)F)c(F)c3)cncc21)NCC1CC1 (racemic)
Prompt line: Sorting by EC50 in descending order, would I or II appear first? Which one? Tell me its label.
Response line: I
